Measured kinact, listed per entry.
# Target of assay: DPAP3 (Plasmodium falciparum, UniProt Q8I1Y2)
# Sequence (Q8I1Y2 entry or part of it): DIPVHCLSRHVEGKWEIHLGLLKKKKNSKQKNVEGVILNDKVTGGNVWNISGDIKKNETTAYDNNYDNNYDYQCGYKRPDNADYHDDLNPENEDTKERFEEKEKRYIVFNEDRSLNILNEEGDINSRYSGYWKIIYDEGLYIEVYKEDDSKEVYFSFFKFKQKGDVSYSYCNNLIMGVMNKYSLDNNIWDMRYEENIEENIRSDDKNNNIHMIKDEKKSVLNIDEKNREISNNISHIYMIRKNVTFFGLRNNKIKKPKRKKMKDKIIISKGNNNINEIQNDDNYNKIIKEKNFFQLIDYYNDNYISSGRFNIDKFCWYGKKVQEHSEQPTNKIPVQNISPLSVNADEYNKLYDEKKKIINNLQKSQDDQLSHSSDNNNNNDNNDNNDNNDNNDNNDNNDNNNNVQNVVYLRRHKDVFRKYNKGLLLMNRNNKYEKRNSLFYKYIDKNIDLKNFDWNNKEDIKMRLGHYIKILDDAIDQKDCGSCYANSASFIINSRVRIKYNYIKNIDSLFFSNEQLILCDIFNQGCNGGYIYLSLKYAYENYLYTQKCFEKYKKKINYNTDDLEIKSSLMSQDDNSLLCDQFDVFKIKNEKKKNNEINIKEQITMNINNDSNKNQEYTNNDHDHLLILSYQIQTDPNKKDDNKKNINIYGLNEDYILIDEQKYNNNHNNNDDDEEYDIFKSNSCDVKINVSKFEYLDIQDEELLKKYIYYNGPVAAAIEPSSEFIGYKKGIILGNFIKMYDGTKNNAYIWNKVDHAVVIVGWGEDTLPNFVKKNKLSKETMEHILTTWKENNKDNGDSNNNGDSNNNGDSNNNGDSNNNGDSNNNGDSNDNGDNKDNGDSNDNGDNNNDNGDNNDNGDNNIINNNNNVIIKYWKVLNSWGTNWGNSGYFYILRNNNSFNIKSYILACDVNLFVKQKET
# Test method notes: biochemical
# Parameters: gene PF3D7_0404700; recombinant, baculovirus/SF9 insect cells, purified from culture supernatant by ion exchange, Ni-NTA and size exclusion; active-site titrated; continuous fluorogenic assay, time-dependent inactivation of 0.2 nM recombinant DPAP3, Met-nLeu(o-Bzl)-ACC 2.2 uM
# Run conditions: read-out: DPAP3 / k inact ·10^3
# Method: The data were analysed according to the irreversible inhibition model shown in Eqn. 1. First, the progress curves (fluorescent units vs. time) were fitted to Eqn. 5, where F is the measured fluorescence at time t, F 0 the initial fluorescence, V 0 the initial turnover rate, and k obs the observed […] rate constant of inhibition measured at each inhibitor concentration 64. […] For this compound, a K i value for reversible inhibition was measured.
Property: kinact (s⁻¹)

INSERT INTO assay_data (molecule, value_reported) VALUES
  ('N[C@H](C(=O)N[C@H](/C=C/S(=O)(=O)c1ccccc1)CCc1ccccc1)C1Cc2ccccc2C1 [Igl‐hPhe‐VS]', 0.0021),
  ('N[C@H](Cc1c[nH]c2ccccc12)C(=O)N[C@H](/C=C/S(=O)(=O)c1ccccc1)CCCCOCc1ccccc1 [D‐Trp‐nLeu(o‐Bzl)‐VS]', 0.0036),
  ('N[C@@H](Cc1ccc(O)c([N+](=O)[O-])c1)C(=O)N[C@H](/C=C/S(=O)(=O)c1ccccc1)CCCCOCc1ccccc1 [Tyr(NO2)‐nLeu(o‐Bzl)‐VS]', 0.0027),
  ('CCC[C@H](N)C(=O)N[C@H](/C=C/S(=O)(=O)c1ccccc1)CCc1ccccc1 [nVal‐hPhe‐VS]', 0.0026);

* * *

# Target of assay: DPAP1 (Plasmodium falciparum, UniProt Q8IIJ9)
# Sequence (Q8IIJ9 28-209): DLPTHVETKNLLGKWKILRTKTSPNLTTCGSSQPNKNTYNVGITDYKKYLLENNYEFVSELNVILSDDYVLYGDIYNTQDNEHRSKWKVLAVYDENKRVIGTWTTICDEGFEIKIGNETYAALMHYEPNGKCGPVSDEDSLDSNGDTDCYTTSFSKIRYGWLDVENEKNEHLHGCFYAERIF
# Sequence (Q8IIJ9 370-599): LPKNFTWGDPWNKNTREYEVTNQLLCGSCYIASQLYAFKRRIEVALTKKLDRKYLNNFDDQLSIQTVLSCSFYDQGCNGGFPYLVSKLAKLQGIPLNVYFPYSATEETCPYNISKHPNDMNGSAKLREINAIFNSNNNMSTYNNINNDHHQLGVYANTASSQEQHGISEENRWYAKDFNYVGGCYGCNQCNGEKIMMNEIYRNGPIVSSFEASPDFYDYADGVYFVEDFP
# Sequence (Q8IIJ9 600-700): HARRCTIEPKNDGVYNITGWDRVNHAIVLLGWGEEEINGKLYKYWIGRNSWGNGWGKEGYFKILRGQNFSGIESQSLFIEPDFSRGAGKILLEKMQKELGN
# Test method notes: biochemical
# Set-up: species or system P. falciparum parasite lysate; continuous fluorogenic assay, time-dependent inactivation of DPAP1 in diluted parasite lysate, Pro-Arg-AMC 20 uM
# Run conditions: read-out: DPAP1 / k inact ·10^3
Quick reference for kinact among some molecules
Property: kinact (s⁻¹)

INSERT INTO assay_data (smiles_entry, property, endpoint_unit, value_reported) VALUES
  ('O=C(N[C@H](C=CS(=O)(=O)c1ccccc1)CCc1ccccc1)[C@@H]1CCCN1', 'kinact', 's⁻¹', 0.0021),
  ('N[C@@H](Cc1ccc(O)c([N+](=O)[O-])c1)C(=O)N[C@H](C=CS(=O)(=O)c1ccccc1)CCc1ccccc1', 'kinact', 's⁻¹', 0.0038),
  ('N[C@H](Cc1c[nH]c2ccccc12)C(=O)N[C@H](/C=C/S(=O)(=O)c1ccccc1)CCc1ccccc1', 'kinact', 's⁻¹', 0.0027),
  ('N[C@@H](Cc1ccc(O)c([N+](=O)[O-])c1)C(=O)N[C@H](/C=C/S(=O)(=O)c1ccccc1)CCCCOCc1ccccc1', 'kinact', 's⁻¹', 0.0026);

* * *

log10(kinact/KI) by entry:
# Target of assay: DPAP1 (Plasmodium falciparum, UniProt Q8IIJ9)
# Test method notes: biochemical
# Parameters: species or system P. falciparum parasite lysate; continuous fluorogenic assay, time-dependent inactivation of DPAP1 in diluted parasite lysate, Pro-Arg-AMC 20 uM
# Run conditions: read-out: DPAP1 / k inact/K i ·10^−3 (M ^−1·s^−1)
Property: log10(kinact/KI) (log10 of the value in M⁻¹ s⁻¹)

INSERT INTO assay_data (compound, property, value_reported) VALUES
  ('N[C@@H](Cc1ccc(O)c([N+](=O)[O-])c1)C(=O)N[C@H](C=CS(=O)(=O)c1ccccc1)CCc1ccccc1 [Tyr(NO2)‐hPhe‐VS]', 'log10(kinact/KI)', 2.18),
  ('N[C@H](Cc1c[nH]c2ccccc12)C(=O)N[C@H](/C=C/S(=O)(=O)c1ccccc1)CCCCOCc1ccccc1 [D‐Trp‐nLeu(o‐Bzl)‐VS]', 'log10(kinact/KI)', 1.64),
  ('N[C@H](C(=O)N[C@H](/C=C/S(=O)(=O)c1ccccc1)CCc1ccccc1)C1Cc2ccccc2C1 [Igl‐hPhe‐VS]', 'log10(kinact/KI)', 2.70),
  ('N[C@@H](Cc1ccc2ccccc2c1)C(=O)N[C@H](/C=C/S(=O)(=O)c1ccccc1)CCc1ccccc1 [2Nal‐hPhe‐VS]', 'log10(kinact/KI)', 2.30),
  ('N[C@H](Cc1c[nH]c2ccccc12)C(=O)N[C@H](/C=C/S(=O)(=O)c1ccccc1)CCc1ccccc1 [D‐Trp‐hPhe‐VS]', 'log10(kinact/KI)', 1.41),
  ('N[C@@H](Cc1ccc(O)c([N+](=O)[O-])c1)C(=O)N[C@H](/C=C/S(=O)(=O)c1ccccc1)CCCCOCc1ccccc1 [Tyr(NO2)‐nLeu(o‐Bzl)‐VS]', 'log10(kinact/KI)', 3.04),
  ('O=C(N[C@H](/C=C/S(=O)(=O)c1ccccc1)CCc1ccccc1)[C@@H]1CCCCN1 [hPro‐hPhe‐VS]', 'log10(kinact/KI)', 6.09);

* * *

# Target of assay: DPAP3 (Plasmodium falciparum, UniProt Q8I1Y2)
# Test method notes: biochemical
# Parameters: gene PF3D7_0404700; recombinant, baculovirus/SF9 insect cells, purified from culture supernatant by ion exchange, Ni-NTA and size exclusion; active-site titrated; continuous fluorogenic assay, time-dependent inactivation of 0.2 nM recombinant DPAP3, Met-nLeu(o-Bzl)-ACC 2.2 uM
# Run conditions: read-out: DPAP3 / k inact ·10^3
Param threshold (0.003 s⁻¹) applies to kinact; output 1.0 when value >= threshold, 0.0 when value < threshold.

INSERT INTO assay_data (smiles_entry, target_of_assay, assigned_category) VALUES
  ('O=C(N[C@H](/C=C/S(=O)(=O)c1ccccc1)CCc1ccccc1)[C@@H]1CCCCN1', 'DPAP3 (Plasmodium falciparum, UniProt Q8I1Y2)', 0.0),
  ('N[C@@H](Cc1ccc2ccccc2c1)C(=O)N[C@H](/C=C/S(=O)(=O)c1ccccc1)CCCCOCc1ccccc1', 'DPAP3 (Plasmodium falciparum, UniProt Q8I1Y2)', 1.0),
  ('N[C@H](C(=O)N[C@H](/C=C/S(=O)(=O)c1ccccc1)CCCCOCc1ccccc1)C1Cc2ccccc2C1', 'DPAP3 (Plasmodium falciparum, UniProt Q8I1Y2)', 1.0),
  ('O=C(N[C@H](/C=C/S(=O)(=O)c1ccccc1)CCCCOCc1ccccc1)[C@@H]1CCCCN1', 'DPAP3 (Plasmodium falciparum, UniProt Q8I1Y2)', 0.0),
  ('O=C(N[C@H](C=CS(=O)(=O)c1ccccc1)CCc1ccccc1)[C@@H]1CCCN1', 'DPAP3 (Plasmodium falciparum, UniProt Q8I1Y2)', 1.0),
  ('N[C@@H](Cc1c[nH]c2ccccc12)C(=O)N[C@H](/C=C/S(=O)(=O)c1ccccc1)CCc1ccccc1', 'DPAP3 (Plasmodium falciparum, UniProt Q8I1Y2)', 1.0);

* * *

# Target of assay: DPAP1 (Plasmodium falciparum, UniProt Q8IIJ9)
# Test method notes: biochemical
# Parameters: species or system P. falciparum parasite lysate; continuous fluorogenic assay, time-dependent inactivation of DPAP1 in diluted parasite lysate, Pro-Arg-AMC 20 uM
# Run conditions: read-out: DPAP1 / k inact ·10^3
# key: entry, value: kinact
Property: kinact (s⁻¹)

INSERT INTO measurements (smiles_entry, property, value_reported) VALUES
  ('CCC[C@H](N)C(=O)N[C@H](/C=C/S(=O)(=O)c1ccccc1)CCc1ccccc1', 'kinact', 0.002),
  ('O=C(N[C@H](/C=C/S(=O)(=O)c1ccccc1)CCCCOCc1ccccc1)[C@@H]1CCCCN1', 'kinact', 0.0029),
  ('N[C@@H](Cc1c[nH]c2ccccc12)C(=O)N[C@H](/C=C/S(=O)(=O)c1ccccc1)CCCCOCc1ccccc1', 'kinact', 0.0022),
  ('N[C@@H](Cc1ccc2ccccc2c1)C(=O)N[C@H](/C=C/S(=O)(=O)c1ccccc1)CCCCOCc1ccccc1', 'kinact', 0.005),
  ('O=C(N[C@H](/C=C/S(=O)(=O)c1ccccc1)CCc1ccccc1)[C@@H]1CCCCN1', 'kinact', 0.0048),
  ('N[C@H](C(=O)N[C@H](/C=C/S(=O)(=O)c1ccccc1)CCCCOCc1ccccc1)C1Cc2ccccc2C1', 'kinact', 0.0041);

* * *

# Target of assay: CatC (bovine) (Bos taurus, UniProt Q3ZCJ8)
# Construct: gene CTSC; native, purified to homogeneity from bovine spleen
# Sequence (Q3ZCJ8 25-134): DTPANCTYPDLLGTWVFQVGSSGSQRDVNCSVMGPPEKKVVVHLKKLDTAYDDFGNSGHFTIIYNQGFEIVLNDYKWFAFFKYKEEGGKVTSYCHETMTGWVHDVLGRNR
# Sequence (Q3ZCJ8 231-394): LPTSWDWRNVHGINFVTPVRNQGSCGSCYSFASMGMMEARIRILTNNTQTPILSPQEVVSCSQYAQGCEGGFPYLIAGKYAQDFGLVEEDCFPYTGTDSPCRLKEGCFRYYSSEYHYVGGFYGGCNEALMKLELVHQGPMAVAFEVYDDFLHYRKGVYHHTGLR
# Sequence (Q3ZCJ8 395-463): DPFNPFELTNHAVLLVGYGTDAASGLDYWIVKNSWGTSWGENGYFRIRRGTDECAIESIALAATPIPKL
# Test method notes: biochemical
# Set-up: continuous fluorogenic assay, time-dependent inactivation of 0.2 nM CatC, Gly-Arg-AMC 15 uM
# Run conditions: read-out: CatC / k inact/K i ·10^−3 (M ^−1·s^−1)
The label depends only on kinact/KI: yes if it is at least 20000 M⁻¹ s⁻¹, no if it is smaller.

INSERT INTO results (compound, assigned_category) VALUES
  ('CCC[C@H](N)C(=O)N[C@H](/C=C/S(=O)(=O)c1ccccc1)CCc1ccccc1 [nVal‐hPhe‐VS]', 'yes'),
  ('N[C@@H](Cc1ccc(O)c([N+](=O)[O-])c1)C(=O)N[C@H](C=CS(=O)(=O)c1ccccc1)CCc1ccccc1 [Tyr(NO2)‐hPhe‐VS]', 'no'),
  ('N[C@@H](Cc1c[nH]c2ccccc12)C(=O)N[C@H](/C=C/S(=O)(=O)c1ccccc1)CCc1ccccc1 [L‐Trp‐hPhe‐VS]', 'yes'),
  ('O=C(N[C@H](/C=C/S(=O)(=O)c1ccccc1)CCc1ccccc1)[C@@H]1CCCCN1 [hPro‐hPhe‐VS]', 'yes'),
  ('N[C@@H](Cc1c[nH]c2ccccc12)C(=O)N[C@H](/C=C/S(=O)(=O)c1ccccc1)CCCCOCc1ccccc1 [L‐Trp‐nLeu(o‐Bzl)‐VS]', 'yes'),
  ('O=C(N[C@H](C=CS(=O)(=O)c1ccccc1)CCc1ccccc1)[C@@H]1CCCN1 [Pro‐hPhe‐VS]', 'yes'),
  ('O=C(N[C@H](/C=C/S(=O)(=O)c1ccccc1)CCCCOCc1ccccc1)[C@@H]1CCCCN1 [hPro‐nLeu(o‐Bzl)‐VS]', 'yes'),
  ('N[C@H](C(=O)N[C@H](/C=C/S(=O)(=O)c1ccccc1)CCc1ccccc1)C1Cc2ccccc2C1 [Igl‐hPhe‐VS]', 'no'),
  ('N[C@@H](Cc1ccc2ccccc2c1)C(=O)N[C@H](/C=C/S(=O)(=O)c1ccccc1)CCc1ccccc1 [2Nal‐hPhe‐VS]', 'no'),
  ('N[C@@H](Cc1ccc(O)c([N+](=O)[O-])c1)C(=O)N[C@H](/C=C/S(=O)(=O)c1ccccc1)CCCCOCc1ccccc1 [Tyr(NO2)‐nLeu(o‐Bzl)‐VS]', 'no'),
  ('N[C@H](Cc1c[nH]c2ccccc12)C(=O)N[C@H](/C=C/S(=O)(=O)c1ccccc1)CCc1ccccc1 [D‐Trp‐hPhe‐VS]', 'no'),
  ('N[C@@H](Cc1ccc2ccccc2c1)C(=O)N[C@H](/C=C/S(=O)(=O)c1ccccc1)CCCCOCc1ccccc1 [2Nal‐nLeu(o‐Bzl)‐VS]', 'no'),
  ('N[C@H](C(=O)N[C@H](/C=C/S(=O)(=O)c1ccccc1)CCCCOCc1ccccc1)C1Cc2ccccc2C1 [Igl‐nLeu(o‐Bzl)‐VS]', 'yes'),
  ('N[C@H](Cc1c[nH]c2ccccc12)C(=O)N[C@H](/C=C/S(=O)(=O)c1ccccc1)CCCCOCc1ccccc1 [D‐Trp‐nLeu(o‐Bzl)‐VS]', 'no');
